Data provenance is PubChem BioAssay AID2546.

TEST_NAME: VP16 counterscreen qHTS for inhibitors of ROR gamma transcriptional activity;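 further: Gal4-VP16 expression switched on by copper sulfate through the metallothionein promoter; nearly all actives have a fitted effect of over 50% in size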
CONDITION_PARAMETERS: Drosophila S2 Gal4-VP16 UAS-luciferase, luminescence, 20 h; series mostly up to 53.6 µM
Out of some 310,000 compounds screened, about 11,000 (3.5%) were called active. About 8% were inconclusive and are not listed. The call rests on the fitted dose curve; in most records, active means well fitted inhibition curve with a large enough effect; inconclusive means small, poorly fitted or top-dose-only effect, or effect the other way; inactive means flat fitted curve, though single readings scatter. For the sample, actives were picked, then their nearest neighbours and some compounds at random.
// classify into TRUE = active, FALSE = inactive

Prompt: Check the results log: what was the call for CCn1cc(C(=O)NCCC(=O)NCCO)c(=O)c2cc3c(cc21)OCO3 ?
Completion: FALSE

Prompt: Write down the call the test reported for this compound. Item: CCOc1ccccc1/C=N/NC(=O)CNC(=O)COc1ccccc1
Completion: FALSE

Prompt: Given COc1ccc(/C=C2/C(=O)N(c3ccccc3)N=C2C)c(OC)c1 , state the outcome it received in this test.
Completion: FALSE

Prompt: State the result this test recorded for COc1ccc(CCNC(=O)c2c(C)nn(-c3ccccc3)c2Cl)cc1 .
Completion: FALSE

Prompt: For Brc1ccc2ncnc(NCc3cccnc3)c2c1 , what call appears in the results of this test?
Completion: FALSE

Prompt: What outcome does the record of this test show for CCOc1ccccc1/C=N/Nc1nc2ccccc2o1 ?
Completion: TRUE

Prompt: GET /call?item= COc1ccc(C2NC(=O)c3ccccc3N2)cc1 (configuration not stated) returns the recorded outcome of this test.
Completion: FALSE
